Give viability, T/C for every item shown.
tested on: K24384-001-R-PDC complex spheroids, viability; assay: Anticancer human tumor K24384-001-R-PDC patient-derived pancreatic adenocarcinoma cell line growth inhibition [GQUAD]; details: second compound 10 µM; first compound 0.0999 µM; stronger effect = lower value
Enter your answer as a number in %; do not include the unit.

Query: I have this compound here, Cc1[nH]c2ccccc2c1CCNCc1ccc(/C=C/C(=O)NO)cc1 + Cc1cnc(CNC(=O)c2c(=O)c3ccc(N4CCCN(C)CC4)nc3n3c2sc2ccccc23)cn1 , and I need its recorded viability, T/C.
Response: 0.26

Query: I have this compound here, Cc1[nH]c2ccccc2c1CCNCc1ccc(/C=C/C(=O)NO)cc1 + CN(C)c1ccc(Nc2c3ccc(NC(=O)CCN4CCCC4)cc3nc3cc(NC(=O)CCN4CCCC4)ccc23)cc1 , and I need its recorded viability, T/C.
Response: 41.8

Query: I have this compound here, CC[C@@]1(O)C(=O)OCc2c1cc1n(c2=O)Cc2cc3c(CN(C)C)c(O)ccc3nc2-1 + Cc1cnc(CNC(=O)c2c(=O)c3ccc(N4CCCN(C)CC4)nc3n3c2sc2ccccc23)cn1 , and I need its recorded viability, T/C.
Response: 21.2

Query: I have this compound here, Cn1ncnc1[C@H]1c2n[nH]c(=O)c3cc(F)cc(c23)N[C@@H]1c1ccc(F)cc1 + Cc1cnc(CNC(=O)c2c(=O)c3ccc(N4CCCN(C)CC4)nc3n3c2sc2ccccc23)cn1 , and I need its recorded viability, T/C.
Response: 26.6

Query: I have this compound here, CCc1c2c(nc3ccc(O)cc13)-c1cc3c(c(=O)n1C2)COC(=O)[C@]3(O)CC + Cc1[nH]c2ccc(F)cc2c1-c1nc2c3cccnc3c3ncccc3c2[nH]1 , and I need its recorded viability, T/C.
Response: 15.1

Query: I have this compound here, CCc1c2c(nc3ccc(O)cc13)-c1cc3c(c(=O)n1C2)COC(=O)[C@]3(O)CC + CN(C)c1ccc(Nc2c3ccc(NC(=O)CCN4CCCC4)cc3nc3cc(NC(=O)CCN4CCCC4)ccc23)cc1 , and I need its recorded viability, T/C.
Response: 36.6

====

test system: K24384-001-R-PDC complex spheroids, viability; assay: Anticancer human tumor K24384-001-R-PDC cell line growth inhibition [GQUAD]; conditions: curve of first compound; second compound 0.1 µM;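 note: spheroids exposed to compounds for seven days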
Quantity Name: pIC50
Note: pIC50 values are expressed as the negative base-10 logarithm of concentration in M.

Query: I have this compound here, CCc1c2c(nc3ccc(O)cc13)-c1cc3c(c(=O)n1C2)COC(=O)[C@]3(O)CC + Cc1cnc(CNC(=O)c2c(=O)c3ccc(N4CCCN(C)CC4)nc3n3c2sc2ccccc23)cn1 , and I need its recorded pIC50.
Response: 8.08

Query: I have this compound here, CC1COCCN1c1cc(-c2ccnn2C)c2ccnc(-c3ccn[nH]3)c2n1 (stereo not given) + CN(C)c1ccc(Nc2c3ccc(NC(=O)CCN4CCCC4)cc3nc3cc(NC(=O)CCN4CCCC4)ccc23)cc1 , and I need its recorded pIC50.
Response: 7.05

====

Give viability, T/C for every item shown.
tested on: K24384-001-R-PDC complex spheroids, viability; assay: Anticancer human tumor K24384-001-R-PDC cell line growth inhibition [GQUAD]; conditions: second compound 1 µM; first compound 10 µM; stronger effect = lower value;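 note: spheroids exposed to compounds for seven days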
Enter your answer as a number in %; do not include the unit.

Query: I have this molecule here, C=CC(=O)N1CCN(c2nc(=O)n(-c3c(C)ccnc3C(C)C)c3nc(-c4c(O)cccc4F)c(F)cc23)C(C)C1 (stereo not given) + CN(C)c1ccc(Nc2c3ccc(NC(=O)CCN4CCCC4)cc3nc3cc(NC(=O)CCN4CCCC4)ccc23)cc1 , and I need its recorded viability, T/C.
Response: 85.7

Query: I have this molecule here, O=C(c1cc(Cc2n[nH]c(=O)c3ccccc23)ccc1F)N1CCN(C(=O)C2CC2)CC1 + Cc1cnc(CNC(=O)c2c(=O)c3ccc(N4CCCN(C)CC4)nc3n3c2sc2ccccc23)cn1 , and I need its recorded viability, T/C.
Response: 49.7

Query: I have this molecule here, CCCS(=O)(=O)Nc1ccc(F)c(C(=O)c2c[nH]c3ncc(-c4ccc(Cl)cc4)cc23)c1F + Cc1cnc(CNC(=O)c2c(=O)c3ccc(N4CCCN(C)CC4)nc3n3c2sc2ccccc23)cn1 , and I need its recorded viability, T/C.
Response: 29

Query: I have this molecule here, CCCS(=O)(=O)Nc1ccc(F)c(C(=O)c2c[nH]c3ncc(-c4ccc(Cl)cc4)cc23)c1F + CN(C)c1ccc(Nc2c3ccc(NC(=O)CCN4CCCC4)cc3nc3cc(NC(=O)CCN4CCCC4)ccc23)cc1 , and I need its recorded viability, T/C.
Response: 53.3

Query: I have this molecule here, CC1COCCN1c1cc(C2(S(C)(=N)=O)CC2)nc(-c2ccnc3[nH]ccc23)n1 (stereo not given) + CN(C)c1ccc(Nc2c3ccc(NC(=O)CCN4CCCC4)cc3nc3cc(NC(=O)CCN4CCCC4)ccc23)cc1 , and I need its recorded viability, T/C.
Response: 32.1

====

tested on: K24384-001-R-PDC complex spheroids, viability; assay: Anticancer human tumor K24384-001-R-PDC cell line growth inhibition [GQUAD]; conditions: curve of first compound; second compound 0.1 µM;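 note: spheroids exposed to compounds for seven days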
Give pIC50 for every item shown.
Note: pIC50 values are expressed as the negative base-10 logarithm of concentration in M.

Query: I have this compound here, CC[C@@]1(O)C(=O)OCc2c1cc1n(c2=O)Cc2cc3c(CN(C)C)c(O)ccc3nc2-1 + Cc1cnc(CNC(=O)c2c(=O)c3ccc(N4CCCN(C)CC4)nc3n3c2sc2ccccc23)cn1 , and I need its recorded pIC50.
Response: 6.67

Query: I have this compound here, O=C(NO)c1cnc(N2CCN(S(=O)(=O)c3ccc4ccccc4c3)CC2)nc1 + Cc1[nH]c2ccc(F)cc2c1-c1nc2c3cccnc3c3ncccc3c2[nH]1 , and I need its recorded pIC50.
Response: 6.17

Query: I have this compound here, Cc1[nH]c2ccccc2c1CCNCc1ccc(/C=C/C(=O)NO)cc1 + CN(C)c1ccc(Nc2c3ccc(NC(=O)CCN4CCCC4)cc3nc3cc(NC(=O)CCN4CCCC4)ccc23)cc1 , and I need its recorded pIC50.
Response: 6.99

Query: I have this compound here, CC1COCCN1c1cc(-c2ccnn2C)c2ccnc(-c3ccn[nH]3)c2n1 (stereo unspecified) + Cc1[nH]c2ccc(F)cc2c1-c1nc2c3cccnc3c3ncccc3c2[nH]1 , and I need its recorded pIC50.
Response: 6.62

====

Give viability, T/C for every item shown.
system: K24384-001-R-PDC complex spheroids, viability; experiment: Anticancer human tumor K24384-001-R-PDC cell line growth inhibition [GQUAD]; details: second compound 1 µM; first compound 0.1 µM; stronger effect = lower value;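 note: spheroids exposed to compounds for seven days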

Query: I have this compound here, CC1COCCN1c1cc(C2(S(C)(=N)=O)CC2)nc(-c2ccnc3[nH]ccc23)n1 (stereo not drawn) + Cc1[nH]c2ccc(F)cc2c1-c1nc2c3cccnc3c3ncccc3c2[nH]1 , and I need its recorded viability, T/C.
Response: 84.1%

Query: I have this compound here, CCCS(=O)(=O)Nc1ccc(F)c(C(=O)c2c[nH]c3ncc(-c4ccc(Cl)cc4)cc23)c1F + CN(C)c1ccc(Nc2c3ccc(NC(=O)CCN4CCCC4)cc3nc3cc(NC(=O)CCN4CCCC4)ccc23)cc1 , and I need its recorded viability, T/C.
Response: 105%

Query: I have this compound here, O=c1[nH]cc(F)c(=O)[nH]1 + CN(C)c1ccc(Nc2c3ccc(NC(=O)CCN4CCCC4)cc3nc3cc(NC(=O)CCN4CCCC4)ccc23)cc1 , and I need its recorded viability, T/C.
Response: 88.8%

====

test system: K24384-001-R-PDC complex spheroids, viability; assay: Anticancer human tumor K24384-001-R-PDC cell line growth inhibition [GQUAD]; details: second compound 3.16 µM; first compound 0.000999 µM; stronger effect = lower value;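 note: spheroids exposed to compounds for seven days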
Give viability, T/C for every item shown.

Query: Find the measured viability, T/C: item CCc1c2c(nc3ccc(O)cc13)-c1cc3c(c(=O)n1C2)COC(=O)[C@]3(O)CC + Cc1cnc(CNC(=O)c2c(=O)c3ccc(N4CCCN(C)CC4)nc3n3c2sc2ccccc23)cn1 , target or system K24384-001-R-PDC complex spheroids, viability.
Response: 37.4%

Query: Find the measured viability, T/C: item CCc1c2c(nc3ccc(O)cc13)-c1cc3c(c(=O)n1C2)COC(=O)[C@]3(O)CC + CN(C)c1ccc(Nc2c3ccc(NC(=O)CCN4CCCC4)cc3nc3cc(NC(=O)CCN4CCCC4)ccc23)cc1 , target or system K24384-001-R-PDC complex spheroids, viability.
Response: 82.3%

Query: Find the measured viability, T/C: item Cc1[nH]c2ccccc2c1CCNCc1ccc(/C=C/C(=O)NO)cc1 + Cc1[nH]c2ccc(F)cc2c1-c1nc2c3cccnc3c3ncccc3c2[nH]1 , target or system K24384-001-R-PDC complex spheroids, viability.
Response: 81.3%

Query: Find the measured viability, T/C: item CC[C@@]1(O)C(=O)OCc2c1cc1n(c2=O)Cc2cc3c(CN(C)C)c(O)ccc3nc2-1 + CN(C)c1ccc(Nc2c3ccc(NC(=O)CCN4CCCC4)cc3nc3cc(NC(=O)CCN4CCCC4)ccc23)cc1 , target or system K24384-001-R-PDC complex spheroids, viability.
Response: 102%

Query: Find the measured viability, T/C: item Cc1[nH]c2ccccc2c1CCNCc1ccc(/C=C/C(=O)NO)cc1 + CN(C)c1ccc(Nc2c3ccc(NC(=O)CCN4CCCC4)cc3nc3cc(NC(=O)CCN4CCCC4)ccc23)cc1 , target or system K24384-001-R-PDC complex spheroids, viability.
Response: 96.4%

Query: Find the measured viability, T/C: item Cn1ncnc1[C@H]1c2n[nH]c(=O)c3cc(F)cc(c23)N[C@@H]1c1ccc(F)cc1 + Cc1[nH]c2ccc(F)cc2c1-c1nc2c3cccnc3c3ncccc3c2[nH]1 , target or system K24384-001-R-PDC complex spheroids, viability.
Response: 74%

Query: Find the measured viability, T/C: item Cc1[nH]c2ccccc2c1CCNCc1ccc(/C=C/C(=O)NO)cc1 + Cc1cnc(CNC(=O)c2c(=O)c3ccc(N4CCCN(C)CC4)nc3n3c2sc2ccccc23)cn1 , target or system K24384-001-R-PDC complex spheroids, viability.
Response: 33.8%

Query: Find the measured viability, T/C: item Cn1ncnc1[C@H]1c2n[nH]c(=O)c3cc(F)cc(c23)N[C@@H]1c1ccc(F)cc1 + CN(C)c1ccc(Nc2c3ccc(NC(=O)CCN4CCCC4)cc3nc3cc(NC(=O)CCN4CCCC4)ccc23)cc1 , target or system K24384-001-R-PDC complex spheroids, viability.
Response: 101%

Query: Find the measured viability, T/C: item Cn1ncnc1[C@H]1c2n[nH]c(=O)c3cc(F)cc(c23)N[C@@H]1c1ccc(F)cc1 + Cc1cnc(CNC(=O)c2c(=O)c3ccc(N4CCCN(C)CC4)nc3n3c2sc2ccccc23)cn1 , target or system K24384-001-R-PDC complex spheroids, viability.
Response: 43.4%

Query: Find the measured viability, T/C: item CCc1c2c(nc3ccc(O)cc13)-c1cc3c(c(=O)n1C2)COC(=O)[C@]3(O)CC + Cc1[nH]c2ccc(F)cc2c1-c1nc2c3cccnc3c3ncccc3c2[nH]1 , target or system K24384-001-R-PDC complex spheroids, viability.
Response: 65%

Query: Find the measured viability, T/C: item CC[C@@]1(O)C(=O)OCc2c1cc1n(c2=O)Cc2cc3c(CN(C)C)c(O)ccc3nc2-1 + Cc1cnc(CNC(=O)c2c(=O)c3ccc(N4CCCN(C)CC4)nc3n3c2sc2ccccc23)cn1 , target or system K24384-001-R-PDC complex spheroids, viability.
Response: 34.8%

Query: Find the measured viability, T/C: item CC[C@@]1(O)C(=O)OCc2c1cc1n(c2=O)Cc2cc3c(CN(C)C)c(O)ccc3nc2-1 + Cc1[nH]c2ccc(F)cc2c1-c1nc2c3cccnc3c3ncccc3c2[nH]1 , target or system K24384-001-R-PDC complex spheroids, viability.
Response: 73.8%
